Target: MAP kinase-interacting serine/threonine-protein kinase 2 (Homo sapiens) (UniProt Q9HBH9)
Sequence (Q9HBH9 whole entry, looked up): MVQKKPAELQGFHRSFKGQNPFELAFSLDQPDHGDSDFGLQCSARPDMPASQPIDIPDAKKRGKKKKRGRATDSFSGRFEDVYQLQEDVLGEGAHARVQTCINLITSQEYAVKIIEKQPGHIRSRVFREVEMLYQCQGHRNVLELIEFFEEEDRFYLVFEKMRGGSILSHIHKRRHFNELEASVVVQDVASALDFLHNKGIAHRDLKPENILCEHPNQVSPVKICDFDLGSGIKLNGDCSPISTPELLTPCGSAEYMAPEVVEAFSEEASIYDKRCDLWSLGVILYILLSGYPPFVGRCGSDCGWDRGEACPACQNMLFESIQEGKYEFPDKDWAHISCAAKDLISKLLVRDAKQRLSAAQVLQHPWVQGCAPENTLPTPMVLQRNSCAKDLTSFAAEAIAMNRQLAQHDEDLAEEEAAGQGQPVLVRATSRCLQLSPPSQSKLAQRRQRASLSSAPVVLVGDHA
Settings: at 0.1 µM
Description: GSK_PKIS: MNK2 mean inhibition at 0.1 uM [Nanosyn]

{"Smiles Record": "CS(=O)(=O)CCNCc1ccc(-c2ccc3ncnc(Nc4ccc(OCc5ccccc5)c(Br)c4)c3c2)o1", "Unit Name": "%", "inhibition": 2.36}
{"Smiles Record": "CCc1cccc(CC)c1/C=C/c1cncc(C(=O)NC)c1", "Unit Name": "%", "inhibition": 0.49}
{"Smiles Record": "CN(C)c1ccc2c(c1)/C(=C/Nc1ccc(S(N)(=O)=O)cc1)C(=O)N2", "Unit Name": "%", "inhibition": 1.66}
{"Smiles Record": "O=C(Nc1n[nH]c2nc(-c3ccc(O)cc3)c(Br)cc12)C1CC1", "Unit Name": "%", "inhibition": 5.42}
{"Smiles Record": "CCN(CC)Cc1ccc(Nc2nccc(-c3cnn4ncccc34)n2)cc1", "Unit Name": "%", "inhibition": 2.76}
{"Smiles Record": "Fc1ccc(-c2ncn(C3CCNCC3)c2-c2ccnc(Oc3ccc4c(c3)OCO4)n2)cc1", "Unit Name": "%", "inhibition": 1.84}
{"Smiles Record": "Fc1ccc(-c2ncn(CCCN3CCOCC3)c2-c2ccncc2)cc1", "Unit Name": "%", "inhibition": -1.39}
{"Smiles Record": "COc1ccc2cc(-c3c(-c4ccncc4)nc(-c4ccc(S(C)(=O)=O)cc4C)n3C)ccc2c1", "Unit Name": "%", "inhibition": 1.75}
{"Smiles Record": "NCc1ccc(-n2c(-c3nonc3N)nc3cnccc32)cc1", "Unit Name": "%", "inhibition": 1.06}
{"Smiles Record": "O=C(Nc1n[nH]c2cc(-c3ccccc3)ccc12)C1CC1", "Unit Name": "%", "inhibition": 3.14}

###

The following compounds are listed with their measured inhibition values.
Biological target: Serine/threonine-protein kinase MRCK alpha (Homo sapiens);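 note: each inhibition figure is a mean value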
Details: at 0.1 µM

{"Smiles Record": "NS(=O)(=O)c1ccc(Nc2cc(-c3ccc(O)c(F)c3)n[nH]2)cc1", "inhibition, %": -0.79}
{"Smiles Record": "COc1cc(Nc2ncc3c(C)nc(-c4cccc(Oc5ccccc5)c4)n3n2)cc(OC)c1OC", "inhibition, %": 0.02}
{"Smiles Record": "Fc1ccc(-c2ncn(CCCN3CCOCC3)c2-c2ccncc2)cc1", "inhibition, %": 1.19}
{"Smiles Record": "O=C(Nc1n[nH]c2cc(-c3cc(F)ccc3F)ccc12)C1CC1", "inhibition, %": -0.78}
{"Smiles Record": "CN(c1ccc(NC(=O)Nc2c(Cl)cccc2Cl)cc1)c1ccnc(Nc2cccc(CS(C)(=O)=O)c2)n1", "inhibition, %": 1.56}
{"Smiles Record": "O=C(NCC1CC1)c1ccc(-c2cccc(C(=O)NC3CC3)c2)cc1", "inhibition, %": 0.69}
{"Smiles Record": "NS(=O)(=O)c1ccc(N/N=C2\\C(=O)Nc3ccc(C(=O)NCCCn4ccnc4)cc32)cc1", "inhibition, %": 0.3}
{"Smiles Record": "CS(=O)(=O)CCNCc1ccc(-c2ccc3ncnc(Nc4ccc(OCc5ccccc5)c(Br)c4)c3c2)o1", "inhibition, %": -6.6}
{"Smiles Record": "CCS(=O)(=O)c1ccc(OC)c(Nc2ncc(-c3ccccc3Cl)o2)c1", "inhibition, %": -0.23}
{"Smiles Record": "Cc1nnc(-c2ccc(C)c(-c3ccc(C(=O)NCc4ccc(Cl)cc4)cc3)c2)o1", "inhibition, %": 0.16}

The reported measurements were obtained from ChEMBL document CHEMBL1961873.
